experiment: Pharmacokinetic profile evaluation in mice; assay type: in vivo, CD-1 mice; conditions: CD-1; mouse, oral administration at 10 mg/kg, plasma
measure.name: half-life (h)
Note: unit h is implicit; provide only the numeric part.

>>> recorded_value("O=C(O)[C@@H]1CC1c1cc(Oc2ccc(C(F)(F)F)cc2)cc2cccnc12 (mixture of isomers) [Example 17]")
26

Now for another entry.
In: Data request, read-out half-life, for CNC(=O)[C@@H]1CC1c1cc(-c2ccc(C(F)(F)F)cc2)cc2c1cnn2C (mixture of isomers) [Example 24]
Out: 5.2

----------
test: Pharmacokinetic profile evaluation in mice; type: in vivo, CD-1 mice; conditions: CD-1; mouse, oral administration at 10 mg/kg, plasma
Entries and their Cmax values follow.
Record the value in ng/mL, omitting the unit from your answer.

>>> recorded_value("O=C(O)[C@@H]1CC1c1cc(Oc2ccc(C(F)(F)F)cc2)cc2cccnc12 (mixture of isomers) [Example 17]")
33700
>>> recorded_value("Cn1cc2cc(Oc3ccc(C(F)(F)F)cc3)cc(C3C[C@H]3C(=O)O)c2n1 (mixture of isomers) [Example 16]")
40100
>>> recorded_value("CNC(=O)[C@@H]1CC1c1cc(-c2ccc(C(F)(F)F)cc2)cc2c1cnn2C (mixture of isomers) [Example 24]")
5530
>>> recorded_value("CNS(=O)(=O)CCc1cc(Oc2ccc(C(F)(F)F)cc2)cc2cn(C)nc12 [Example 45]")
3100
>>> recorded_value("CNS(=O)(=O)CCc1cc(-c2ccc(C(F)(F)F)cc2)cc2cn(C)nc12 [Example 44]")
2470

Shifting focus to the molecule that follows.
In: Endpoint output: Cmax of Cn1cc2cc(Oc3ccc(C(F)(F)F)cc3)cc(C3C[C@H]3C(=O)N3C[C@@H]4C[C@H]3C[C@@H]4O)c2n1 (single isomer, unassigned) [Example 103f] . Value?
Out: 4120
